src = paper PMC11945486

Recorded measurements of EC50, one per entry
Target: human TAS1R2-WT/TAS1R3-S446N (Homo sapiens, UniProt Q7RTX0+Q8TE23, S446N)
Construct: expressed in transfected cells; host or cells: HEK293T stably expressing Gα16gust44
Sequence (Q8TE23 20-839): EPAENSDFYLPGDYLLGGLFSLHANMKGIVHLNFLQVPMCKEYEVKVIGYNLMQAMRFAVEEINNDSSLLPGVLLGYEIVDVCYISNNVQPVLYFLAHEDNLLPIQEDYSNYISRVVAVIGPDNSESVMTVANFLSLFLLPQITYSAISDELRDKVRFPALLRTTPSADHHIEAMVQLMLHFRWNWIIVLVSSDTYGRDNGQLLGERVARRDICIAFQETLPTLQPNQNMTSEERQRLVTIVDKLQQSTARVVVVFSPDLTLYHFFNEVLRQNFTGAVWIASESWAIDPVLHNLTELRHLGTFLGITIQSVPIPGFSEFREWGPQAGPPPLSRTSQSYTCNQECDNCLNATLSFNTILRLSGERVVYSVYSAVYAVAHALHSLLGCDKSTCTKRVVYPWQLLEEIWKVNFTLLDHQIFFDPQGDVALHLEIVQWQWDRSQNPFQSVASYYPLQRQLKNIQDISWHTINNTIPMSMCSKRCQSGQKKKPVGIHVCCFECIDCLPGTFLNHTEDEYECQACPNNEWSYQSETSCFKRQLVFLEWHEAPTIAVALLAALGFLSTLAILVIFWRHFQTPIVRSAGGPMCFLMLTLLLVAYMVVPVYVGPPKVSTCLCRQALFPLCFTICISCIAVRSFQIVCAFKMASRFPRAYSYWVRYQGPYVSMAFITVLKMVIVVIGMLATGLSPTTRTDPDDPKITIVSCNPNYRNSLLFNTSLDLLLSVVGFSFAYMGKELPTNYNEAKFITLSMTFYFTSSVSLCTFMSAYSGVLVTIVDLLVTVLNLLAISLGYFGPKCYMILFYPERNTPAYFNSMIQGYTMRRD
Sequence (Q7RTX0 21-852 S446N): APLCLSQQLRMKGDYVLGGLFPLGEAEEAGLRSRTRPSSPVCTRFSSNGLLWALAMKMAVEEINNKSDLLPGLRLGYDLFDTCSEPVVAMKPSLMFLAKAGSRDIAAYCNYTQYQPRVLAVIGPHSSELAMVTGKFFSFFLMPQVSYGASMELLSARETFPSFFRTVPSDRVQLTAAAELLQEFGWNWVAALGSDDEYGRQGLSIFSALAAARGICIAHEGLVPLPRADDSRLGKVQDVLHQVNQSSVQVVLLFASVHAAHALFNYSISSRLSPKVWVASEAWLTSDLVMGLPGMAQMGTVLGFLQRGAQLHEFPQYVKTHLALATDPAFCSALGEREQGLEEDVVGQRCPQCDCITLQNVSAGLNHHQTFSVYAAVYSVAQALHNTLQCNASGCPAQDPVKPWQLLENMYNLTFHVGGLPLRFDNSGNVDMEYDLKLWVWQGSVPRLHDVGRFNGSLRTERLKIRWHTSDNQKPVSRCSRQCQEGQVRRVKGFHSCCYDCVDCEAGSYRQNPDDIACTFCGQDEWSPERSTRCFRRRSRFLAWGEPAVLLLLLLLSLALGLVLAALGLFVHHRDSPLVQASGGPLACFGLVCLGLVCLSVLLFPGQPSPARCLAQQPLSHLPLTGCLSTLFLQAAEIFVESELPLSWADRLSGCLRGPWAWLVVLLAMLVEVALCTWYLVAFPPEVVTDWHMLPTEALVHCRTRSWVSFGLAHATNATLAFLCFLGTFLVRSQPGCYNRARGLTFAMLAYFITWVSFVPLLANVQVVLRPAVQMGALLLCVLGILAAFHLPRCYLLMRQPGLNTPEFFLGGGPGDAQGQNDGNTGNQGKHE
Assay: Calcium mobilisation assay, TAS1R2-WT with TAS1R3 variant S446N
Type: cell-based
Conditions: read-out: EC50
From the text: The coding sequences for TAS1R2 and TAS1R3 were commercially synthesised, and the human codon was optimised for expression in human cells. […] The HEK293T cells were kindly provided by Jay P. Slack (Givaudan Flavors Corporation; Cincinnati, OH, USA). […] The Ca^2+ changes were expressed as fractional changes in fluorescent light intensity: ΔF/F = (F − F0)/F0, where F was the fluorescent light intensity at each point, and F0 was the value of emitted fluorescent light prior to stimulus application. […]
observed_property: EC50 (µM)

INSERT INTO measurements (compound, scale_unit, reading) VALUES
  ('CC1=CC(=O)NS(=O)(=O)O1', 'µM', 487),
  ('C[C@H](CC[C@@H](O[C@@H]1O[C@H](CO[C@@H]2O[C@H](CO)[C@@H](O)[C@H](O)[C@H]2O)[C@@H](O)[C@H](O)[C@H]1O[C@@H]1O[C@H](CO)[C@@H](O)[C@H](O)[C@H]1O)C(C)(C)O)[C@H]1CC[C@@]2(C)[C@@H]3CC=C4[C@@H](CC[C@H](O[C@@H]5O[C@H](CO[C@@H]6O[C@H](CO)[C@@H](O)[C@H](O)[C@H]6O)[C@@H](O)[C@H](O)[C@H]5O)C4(C)C)[C@]3(C)[C@H](O)C[C@]12C [Mogroside V, mogroside V]', 'µM', 47.7),
  ('COc1ccc(CCC(=O)c2c(O)cc(O[C@@H]3O[C@H](CO)[C@@H](O)[C@H](O)[C@H]3O[C@@H]3O[C@@H](C)[C@H](O)[C@@H](O)[C@H]3O)cc2O)cc1O [NHDC, neohesperidin dihydrochalcone]', 'µM', 49.4);
